Attribution: the supplement of paper PMC11061612

Measured combination Emax of individual entries
# System: Hey (Ovarian Carcinoma)
# Assay Remarks: combination Emax (second highest fraction inhibited in the dose matrix, 72 h); higher = more inhibition; extreme values may be limits of the assay

{"Compound": "CC(=O)c1c(C)c2cnc(Nc3ccc(N4CCNCC4)cn3)nc2n(C2CCCC2)c1=O [Palbociclib] + Cn1cnc2c(F)c(Nc3ccc(Br)cc3Cl)c(C(=O)NOCCO)cc21 [Selumetinib] (first compound max 10 µM, 7x7, partner max 10 µM)", "Study System": "Hey (Ovarian Carcinoma)", "combination Emax": 0.623}
{"Compound": "C[C@@H](c1ccc2nccn2c1)n1nnc2ncc(-c3cnn(C)c3)nc21 [Savolitinib] + CC1(C)CCC(CN2CCN(c3ccc(C(=O)NS(=O)(=O)c4ccc(NCC5CCOCC5)c([N+](=O)[O-])c4)c(Oc4cnc5[nH]ccc5c4)c3)CC2)=C(c2ccc(Cl)cc2)C1 [Venetoclax] (first compound max 1 µM, 7x7, partner max 1 µM)", "Study System": "Hey (Ovarian Carcinoma)", "combination Emax": 0.0566}
{"Compound": "CN(CCO)CC[C@H](CSc1ccccc1)Nc1ccc(S(=O)(=O)NC(=O)c2ccc(N3CCC([C@@H](O)c4ccccc4-c4ccc(Cl)cc4)CC3)cc2)cc1S(=O)(=O)C(F)(F)F [AZD4320] + C1CN(CCC1(C(=O)N[C@@H](CCO)C2=CC=C(C=C2)Cl)N)C3=NC=NC4=C3C=CN4 [Capivasertib] (first compound max 1 µM, 7x7, partner max 3 µM)", "Study System": "Hey (Ovarian Carcinoma)", "combination Emax": 0.106}
{"Compound": "CC1(C)CCC(CN2CCN(c3ccc(C(=O)NS(=O)(=O)c4ccc(NCC5CCOCC5)c([N+](=O)[O-])c4)c(Oc4cnc5[nH]ccc5c4)c3)CC2)=C(c2ccc(Cl)cc2)C1 [Venetoclax] + COc1cc(Nc2ncc3c(n2)-c2ccc(Cl)cc2C(c2c(F)cccc2OC)=NC3)ccc1C(=O)O [Alisertib] (first compound max 1 µM, 7x7, partner max 10 µM)", "Study System": "Hey (Ovarian Carcinoma)", "combination Emax": 0.61}
{"Compound": "NC1(C(=O)N[C@@H](CCO)c2ccc(Cl)cc2)CCN(c2ncnc3[nH]ccc23)CC1 [Capivasertib] + Cn1cnc2c(F)c(Nc3ccc(Br)cc3Cl)c(C(=O)NOCCO)cc21 [Selumetinib] (first compound max 10 µM, 7x7, partner max 10 µM)", "Study System": "Hey (Ovarian Carcinoma)", "combination Emax": 0.773}
{"Compound": "CN(CCO)CC[C@H](CSc1ccccc1)Nc1ccc(S(=O)(=O)NC(=O)c2ccc(N3CCC([C@@H](O)c4ccccc4-c4ccc(Cl)cc4)CC3)cc2)cc1S(=O)(=O)C(F)(F)F [AZD4320] + Cc1cc2ncnn2cc1Nc1ncc2c(n1)n(C1CCOCC1)c(=O)n2C [AZD7648] (first compound max 1 µM, 7x7, partner max 10 µM)", "Study System": "Hey (Ovarian Carcinoma)", "combination Emax": 0.247}
{"Compound": "COc1nnc2ccc(N3CCC(c4ccc(OCCN5CCN(C)C(=O)[C@H]5C)cc4)CC3)nn12 [AZD5153] + C=CCn1c(=O)c2cnc(Nc3ccc(N4CCN(C)CC4)cc3)nc2n1-c1cccc(C(C)(C)O)n1 [AZD1775] (first compound max 1 µM, partner max 1 µM)", "Study System": "Hey (Ovarian Carcinoma)", "combination Emax": 0.655}
{"Compound": "CN(CCO)CC[C@H](CSc1ccccc1)Nc1ccc(S(=O)(=O)NC(=O)c2ccc(N3CCC([C@@H](O)c4ccccc4-c4ccc(Cl)cc4)CC3)cc2)cc1S(=O)(=O)C(F)(F)F [AZD4320] + C[C@@H](Nc1cc(F)cc(F)c1)c1cc(C(=O)N(C)C)cc2c(=O)cc(N3CCOCC3)oc12 [AZD8186] (first compound max 1 µM, 7x7, partner max 3 µM)", "Study System": "Hey (Ovarian Carcinoma)", "combination Emax": 0.373}
{"Compound": "CS(=O)(=O)CCNCc1ccc(-c2ccc3ncnc(Nc4ccc(OCc5cccc(F)c5)c(Cl)c4)c3c2)o1 [Lapatinib] + C[C@@H](Oc1cc(-c2cnn(C3CCNCC3)c2)cnc1N)c1c(Cl)ccc(F)c1Cl [Crizotinib] (first compound max 10 µM, 7x7, partner max 10 µM)", "Study System": "Hey (Ovarian Carcinoma)", "combination Emax": 0.865}
{"Compound": "C=CCn1c(=O)c2cnc(Nc3ccc(N4CCN(C)CC4)cc3)nc2n1-c1cccc(C(C)(C)O)n1 [AZD1775] + O=C(c1cc(Cc2n[nH]c(=O)c3ccccc23)ccc1F)N1CCN(C(=O)C2CC2)CC1 [Olaparib] (first compound max 1 µM, partner max 10 µM)", "Study System": "Hey (Ovarian Carcinoma)", "combination Emax": 0.552}
{"Compound": "CC1(C)CCC(CN2CCN(c3ccc(C(=O)NS(=O)(=O)c4ccc(NCC5CCOCC5)c([N+](=O)[O-])c4)c(Oc4cnc5[nH]ccc5c4)c3)CC2)=C(c2ccc(Cl)cc2)C1 [Venetoclax] + C1CN(CCC1(C(=O)N[C@@H](CCO)C2=CC=C(C=C2)Cl)N)C3=NC=NC4=C3C=CN4 [Capivasertib] (first compound max 1 µM, 7x7, partner max 3 µM)", "Study System": "Hey (Ovarian Carcinoma)", "combination Emax": 0.24}
{"Compound": "CC1(C)CCC(CN2CCN(c3ccc(C(=O)NS(=O)(=O)c4ccc(NCC5CCOCC5)c([N+](=O)[O-])c4)c(Oc4cnc5[nH]ccc5c4)c3)CC2)=C(c2ccc(Cl)cc2)C1 [Venetoclax] + CCN(CCO)CCCOc1ccc2c(Nc3cc(CC(=O)Nc4cccc(F)c4)[nH]n3)ncnc2c1 [AZD2811] (first compound max 1 µM, 7x7, partner max 1 µM)", "Study System": "Hey (Ovarian Carcinoma)", "combination Emax": 0.266}
